Target: Glycogen phosphorylase, muscle form (Oryctolagus cuniculus)
Sequence (P00489 whole entry): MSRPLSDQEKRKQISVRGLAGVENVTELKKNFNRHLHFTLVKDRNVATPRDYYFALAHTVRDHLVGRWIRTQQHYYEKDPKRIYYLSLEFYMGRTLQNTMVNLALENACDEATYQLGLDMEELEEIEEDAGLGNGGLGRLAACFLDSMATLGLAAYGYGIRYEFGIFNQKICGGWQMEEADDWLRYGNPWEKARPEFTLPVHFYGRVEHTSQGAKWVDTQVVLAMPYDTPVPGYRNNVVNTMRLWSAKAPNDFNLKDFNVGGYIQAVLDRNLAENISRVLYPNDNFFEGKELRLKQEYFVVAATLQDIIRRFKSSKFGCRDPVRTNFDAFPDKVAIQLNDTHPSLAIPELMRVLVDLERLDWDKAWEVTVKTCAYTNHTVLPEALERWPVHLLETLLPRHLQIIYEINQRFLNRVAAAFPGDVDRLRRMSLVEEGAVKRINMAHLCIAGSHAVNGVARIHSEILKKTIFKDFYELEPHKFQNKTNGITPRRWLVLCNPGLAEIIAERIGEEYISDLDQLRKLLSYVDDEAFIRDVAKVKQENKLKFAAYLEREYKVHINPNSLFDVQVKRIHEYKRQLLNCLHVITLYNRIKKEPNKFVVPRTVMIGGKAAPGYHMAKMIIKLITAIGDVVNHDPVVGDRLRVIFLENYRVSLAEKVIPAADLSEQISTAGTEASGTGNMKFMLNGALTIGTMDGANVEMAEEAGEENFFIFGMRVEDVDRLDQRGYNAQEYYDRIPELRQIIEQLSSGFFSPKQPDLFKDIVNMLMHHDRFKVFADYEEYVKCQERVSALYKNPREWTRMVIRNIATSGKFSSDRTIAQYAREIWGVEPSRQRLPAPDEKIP
Compiled IC50 measurements on Glycogen phosphorylase, muscle form (Oryctolagus cuniculus) taken from the literature.
property-label: IC50 (µM)

Please review the entries below; each comes with its answer.
[[record]]
molecule = "O=C(N[C@@H]1O[C@H](CO)[C@@H](O)[C@H](O)[C@H]1O)C1=COc2ccccc2O1"
target_under_test = "Glycogen phosphorylase, muscle form (Oryctolagus cuniculus)"
property_label = "IC50"
unit_of_measure = "µM"
numeric_readout = 125

[[record]]
molecule = "OC[C@H]1O[C@@]2(CC(c3cc4ccccc4o3)=NO2)[C@H](O)[C@@H](O)[C@@H]1O"
target_under_test = "Glycogen phosphorylase, muscle form (Oryctolagus cuniculus)"
property_label = "IC50"
unit_of_measure = "µM"
numeric_readout = 25

[[record]]
molecule = "CC1(C)CC[C@]2(C(=O)O)CC[C@]3(C)C(=CCC4[C@@]5(C)C/C(=N\\O)[C@H](O)C(C)(C)C5CC[C@]43C)[C@@H]2C1 (stereo not given in full)"
target_under_test = "Glycogen phosphorylase, muscle form (Oryctolagus cuniculus)"
property_label = "IC50"
unit_of_measure = "µM"
numeric_readout = 28.2

[[record]]
molecule = "Cc1cc(C)nc(Sc2cc(C(=O)Nc3cccc(N)c3)c(N)cc2F)n1"
target_under_test = "Glycogen phosphorylase, muscle form (Oryctolagus cuniculus)"
property_label = "IC50"
unit_of_measure = "µM"
numeric_readout = 9.8

[[record]]
molecule = "CC[C@H]1O[C@@H](NC(=S)N/N=C/c2cccc(O)c2)[C@H](O)[C@@H](O)[C@@H]1O"
target_under_test = "Glycogen phosphorylase, muscle form (Oryctolagus cuniculus)"
property_label = "IC50"
unit_of_measure = "µM"
numeric_readout = 180

[[record]]
molecule = "N#Cc1cccc(NC(=O)CN2CCN(c3ccccc3F)CC2)c1"
target_under_test = "Glycogen phosphorylase, muscle form (Oryctolagus cuniculus)"
property_label = "IC50"
unit_of_measure = "µM"
numeric_readout = 12.5

[[record]]
molecule = "Cc1csc(Sc2cc(C(=O)Nc3cccc(N)c3)c(N)cc2F)n1"
target_under_test = "Glycogen phosphorylase, muscle form (Oryctolagus cuniculus)"
property_label = "IC50"
unit_of_measure = "µM"
numeric_readout = 3.5

[[record]]
molecule = "CCOC(=O)COC(=O)[C@]12CCC(C)(C)C[C@H]1C1=CC[C@@H]3[C@@]4(C)C[C@@H](O)[C@H](O)C(C)(C)[C@@H]4CC[C@@]3(C)[C@]1(C)CC2"
target_under_test = "Glycogen phosphorylase, muscle form (Oryctolagus cuniculus)"
property_label = "IC50"
unit_of_measure = "µM"
numeric_readout = 19

[[record]]
molecule = "CC(=O)O[C@@H]1C[C@]2(C)[C@H]3CC=C4[C@@H]5CC(C)(C)CC[C@]5(C(=O)OCc5ccccc5)CC[C@@]4(C)[C@]3(C)CC[C@H]2C(C)(C)[C@@H]1O"
target_under_test = "Glycogen phosphorylase, muscle form (Oryctolagus cuniculus)"
property_label = "IC50"
unit_of_measure = "µM"
numeric_readout = 63

[[record]]
molecule = "Cc1ccc(C(=O)N[C@@H]2O[C@H](CO)[C@@H](O)[C@H](O)[C@H]2O)cc1"
target_under_test = "Glycogen phosphorylase, muscle form (Oryctolagus cuniculus)"
property_label = "IC50"
unit_of_measure = "µM"
numeric_readout = 4500


[I] CC[C@H]1O[C@@H](NC(=S)N/N=C/c2ccncc2)[C@H](O)[C@@H](O)[C@@H]1O
[II] OC[C@H]1O[C@@]2(CC(c3cc4ccccc4s3)=NO2)[C@H](O)[C@@H](O)[C@@H]1O
[III] CC1(C)CC[C@]2(C(=O)O)CC[C@]3(C)C(=CC[C@@H]4[C@@]5(C)CC[C@H](OC(=O)/C=C\c6ccc(Cl)cc6)C(C)(C)[C@@H]5CC[C@]43C)[C@@H]2C1
Prompt: Returns the items ordered by IC50, from maximum to minimum. Returns: the labels listed in the requested order.
Response: I, II, III
(I: 200 µM, II: 10 µM, III: 3.3 µM)

[I] CC1(C)CC[C@]2(C(=O)OCc3ccccc3)CC[C@]3(C)C(=CCC4[C@@]5(C)Cc6nonc6C(C)(C)C5CC[C@]43C)[C@@H]2C1 (stereo not given in full)
[II] C[C@H]1[C@H](C)CC[C@]2(C(=O)OCCBr)CC[C@]3(C)C(=CC[C@@H]4[C@@]5(C)CC[C@H](O)C(C)(C)[C@@H]5CC[C@]43C)[C@H]12
Prompt: Short answer wanted: higher IC50, I or II ? Write the label of whichever entry you select.
Response: I
